- tested.system: T1, human IL-13 (recombinant E. coli-expressed) (human, UniProt P35225 35-146)
- T1 construct: also called hIL-13
- T1 sequence (P35225 other isoform, or with tags, fused parts or gaps limits assumed): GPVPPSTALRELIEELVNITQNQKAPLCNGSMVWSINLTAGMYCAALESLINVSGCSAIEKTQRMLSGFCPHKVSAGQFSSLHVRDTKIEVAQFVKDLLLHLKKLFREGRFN
- assay.explanation: ProteOn XPR36 SPR, mAb (supernatant) captured on anti-human IgG, IL13 analyte, 1:1 fit
pKd overview
pKd is a log-scale quantity: -log10 of the concentration expressed in molar.

A1H100A ThrL1 (antibody, human IgG1, kappa, V domains shown, CDRH3 variant of A1L1) VH: QVQLVQSGAEVKKPGSSVKVSCKASGFYIKDTYMHWVRQAPGQGLEWMGTIDPANGNTKYVPKFQGRVTITADESTSTAYMELSSLRSEDTAVYYCARSIYDDYTYDDYYAMDYWGQGTLVTVSS VL: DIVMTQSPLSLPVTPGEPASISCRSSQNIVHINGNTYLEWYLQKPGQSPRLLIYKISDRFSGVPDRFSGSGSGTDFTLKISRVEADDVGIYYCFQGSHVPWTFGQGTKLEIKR    9.80
A1H100A ArgL1 (antibody, human IgG1, kappa, V domains shown, CDRH3 variant of A1L1) VH: QVQLVQSGAEVKKPGSSVKVSCKASGFYIKDTYMHWVRQAPGQGLEWMGTIDPANGNTKYVPKFQGRVTITADESTSTAYMELSSLRSEDTAVYYCARSIYDDYRYDDYYAMDYWGQGTLVTVSS VL: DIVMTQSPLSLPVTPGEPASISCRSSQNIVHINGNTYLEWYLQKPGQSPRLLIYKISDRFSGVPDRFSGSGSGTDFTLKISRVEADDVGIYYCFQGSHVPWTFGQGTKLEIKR    9.59
A1H100A SerL1 (antibody, human IgG1, kappa, V domains shown, CDRH3 variant of A1L1) VH: QVQLVQSGAEVKKPGSSVKVSCKASGFYIKDTYMHWVRQAPGQGLEWMGTIDPANGNTKYVPKFQGRVTITADESTSTAYMELSSLRSEDTAVYYCARSIYDDYSYDDYYAMDYWGQGTLVTVSS VL: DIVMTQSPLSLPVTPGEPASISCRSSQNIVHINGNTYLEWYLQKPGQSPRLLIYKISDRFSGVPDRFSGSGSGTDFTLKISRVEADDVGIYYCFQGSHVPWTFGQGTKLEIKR    9.88
A1H100A GlnL1 (antibody, human IgG1, kappa, V domains shown, CDRH3 variant of A1L1) VH: QVQLVQSGAEVKKPGSSVKVSCKASGFYIKDTYMHWVRQAPGQGLEWMGTIDPANGNTKYVPKFQGRVTITADESTSTAYMELSSLRSEDTAVYYCARSIYDDYQYDDYYAMDYWGQGTLVTVSS VL: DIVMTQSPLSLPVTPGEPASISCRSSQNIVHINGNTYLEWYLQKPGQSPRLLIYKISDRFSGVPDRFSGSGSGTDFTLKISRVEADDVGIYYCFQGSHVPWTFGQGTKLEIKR    9.71
A1H100A ValL1 (antibody, human IgG1, kappa, V domains shown, CDRH3 variant of A1L1) VH: QVQLVQSGAEVKKPGSSVKVSCKASGFYIKDTYMHWVRQAPGQGLEWMGTIDPANGNTKYVPKFQGRVTITADESTSTAYMELSSLRSEDTAVYYCARSIYDDYVYDDYYAMDYWGQGTLVTVSS VL: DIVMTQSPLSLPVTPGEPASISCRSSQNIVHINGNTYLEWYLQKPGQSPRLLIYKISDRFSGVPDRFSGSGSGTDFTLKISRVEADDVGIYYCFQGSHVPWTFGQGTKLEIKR    9.95

# ---- query binder ----
## Input Indicate the recorded pKd value for this binder: A1Y100B TrpL1 (antibody, human IgG1, kappa, V domains shown, CDRH3 variant of A1L1) VH: QVQLVQSGAEVKKPGSSVKVSCKASGFYIKDTYMHWVRQAPGQGLEWMGTIDPANGNTKYVPKFQGRVTITADESTSTAYMELSSLRSEDTAVYYCARSIYDDYHWDDYYAMDYWGQGTLVTVSS VL: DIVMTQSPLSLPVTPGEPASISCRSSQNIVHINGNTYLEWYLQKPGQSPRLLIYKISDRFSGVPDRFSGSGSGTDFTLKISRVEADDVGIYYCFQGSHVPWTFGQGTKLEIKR
## Output 10.17
